Quick reference for melting point among some compounds

COc1ccc(-c2nc(S(=O)(=O)c3ccccc3)[nH]c2-c2ccc(OC)cc2)cc1 = 106 °C
Clc1ccc(CC2(n3cncn3)CC2)cc1 = 67 to 68 °C
CCCc1[nH]c2cc(C(=O)OC)ccc2c1C(=O)COC = 127 to 129 °C
O=C1Nc2c(ccc3c2CCNC3)C1=O = 270 °C

Now examine the next entry.
Given the compound CC1Cc2ccc(Cl)cc2C(c2ccc([N+](=O)[O-])cc2)=NN1C(N)=O (stereo not drawn) , what is its reported melting point?
223 to 234 °C

----------
Measured melting point by item

Worked examples follow.
OCC1CCCc2scnc21 (stereo unspecified) = 74 to 75 °C
CC(C)(C)c1cc(C(=O)c2ccc(C#N)cc2)cc(C(C)(C)C)c1O = 166 to 168 °C
CCc1ncc2n1-c1ccc(Cl)cc1C(c1ccccc1F)=NC2 = 140 to 143 °C

Need melting point, item FC(F)(F)c1cccc(-c2nccc3nncn23)c1
145 to 146 °C

Recorded melting point of C#Cc1cnn(-c2ccnc3cc(Cl)ccc23)c1 , please.
174 to 175 °C

melting point lookup needed for COc1cccc2c1CC1c3c(cc(OC)c(OC)c3-2)CCN1C (stereo unspecified) , thanks.
184 to 185 °C

For the compound CC(C)(C)C(O)c1ccc(CO)cc1 (stereo unspecified) , what melting point is on record?
91 to 95 °C

The origin of these recorded values is a melting point compilation (Tetko et al.; mined from patent text by program, amines drawn as free bases though some values may be those of a salt).
